Source of measurements: ChEMBL document CHEMBL3508140

MEASUREMENT NOTES: Plasma clearance of epirubicin following intravenous epirubicin at 3 mg.Kg-1 dose in rabbit
Assay type: ADME, organism-based, Oryctolagus cuniculus
CONDITION SUMMARY: both, New Zealand White
TEST READOUT: clearance (mL/min)
Note: unit mL/min is implicit; provide only the numeric part.

COc1cccc2c1C(=O)c1c(O)c3c(c(O)c1C2=O)C[C@@](O)(C(=O)CO)C[C@@H]3O[C@H]1C[C@H](N)[C@@H](O)[C@H](C)O1.Cl [EPIRUBICIN HYDROCHLORIDE] has a reported clearance of 323

---

MEASUREMENT NOTES: Half-life of terminal elimination phase of epirubicin following intravenous epirubicin at 40-60 mg.m-2 dose in cancer patients
Type: ADME, organism-based
CONDITION SUMMARY: human, plasma
TEST READOUT: half-life (h)
Note: unit h is implicit; provide only the numeric part.

COc1cccc2c1C(=O)c1c(O)c3c(c(O)c1C2=O)C[C@@](O)(C(=O)CO)C[C@@H]3O[C@H]1C[C@H](N)[C@@H](O)[C@H](C)O1.Cl [EPIRUBICIN HYDROCHLORIDE] has a reported half-life of 15.3

---

MEASUREMENT NOTES: Mean AUC of epirubicin following intravenous epirubicin at 60 mg.m-2 dose in cancer patients
Assay type: ADME, organism-based
CONDITION SUMMARY: human, plasma
TEST READOUT: AUC (ng·h/mL)
Note: unit ng·h/mL is implicit; provide only the numeric part.

COc1cccc2c1C(=O)c1c(O)c3c(c(O)c1C2=O)C[C@@](O)(C(=O)CO)C[C@@H]3O[C@H]1C[C@H](N)[C@@H](O)[C@H](C)O1.Cl [EPIRUBICIN HYDROCHLORIDE] has a reported AUC of 1500
